- System: E. coli ST131
- test_name: Potentiation of additional antibiotics (COMPAN1F plates), MIC
- Type: cell-based, Escherichia coli
- recorded_conditions: + 0.5 μM peptidomimetic 15
readout_type: MIC of antibiotic in presence of peptidomimetic 15

Below: 3 compounds and their reported MIC of antibiotic in presence of peptidomimetic 15.
compound	result_value
CO[C@@]1(NC(=O)Cc2cccs2)C(=O)N2C(C(=O)O)=C(COC(N)=O)CS[C@@H]21 [Cefoxitin]	4 µg/mL
NCC[C@H](O)C(=O)N[C@@H]1C[C@H](N)[C@@H](O[C@H]2O[C@H](CN)[C@@H](O)[C@H](O)[C@H]2O)[C@H](O)[C@H]1O[C@H]1O[C@H](CO)[C@@H](O)[C@H](N)[C@H]1O [Amikacin]	8 µg/mL
Cc1onc(-c2ccccc2)c1C(=O)N[C@@H]1C(=O)N2[C@@H]1SC(C)(C)[C@@H]2C(=O)O [Oxacillin]	>4 µg/mL

The reported MIC of antibiotic in presence of peptidomimetic 15 of the compound C[C@@H](O)[C@H]1C(=O)N2C(C(=O)O)=C(SCCN=CN)C[C@H]12 [Imipenem] was ≤1 µg/mL

Query O=C(N[C@H](CO)[C@H](O)c1ccc([N+](=O)[O-])cc1)C(Cl)Cl [Chloramphenicol] yields MIC of antibiotic in presence of peptidomimetic 15 of ≤4 µg/mL

Input CC1(C)S[C@@H]2[C@H](NC(=O)[C@H](C(=O)O)c3ccsc3)C(=O)N2[C@H]1C(=O)O [Ticarcillin] . Output MIC of antibiotic in presence of peptidomimetic 15: >64 µg/mL

# MIC of antibiotic in presence of peptidomimetic 15 (compound: CO/N=C(\C(=O)N[C@@H]1C(=O)N2C(C(=O)O)=C(CSC(=O)c3ccco3)CS[C@H]12)c1csc(N)n1 [Ceftiofur] ) is >4 µg/mL

Just so you know, measured MIC of antibiotic in presence of peptidomimetic 15 for CCN1CCN(c2cc3c(cc2F)c(=O)c(C(=O)O)cn3C2CC2)CC1 [Enrofloxacin] came out at >2 µg/mL

Memo: Cc1nnc(SCC2=C(C(=O)O)N3C(=O)[C@@H](NC(=O)Cn4cnnn4)[C@H]3SC2)s1 [Cefazolin] , reported MIC of antibiotic in presence of peptidomimetic 15: >16 µg/mL

Summary for this compound, CN1CCN(c2c(F)cc3c(=O)c(C(=O)O)cn4c3c2OCN4C)CC1 [Marbofloxacin] : MIC of antibiotic in presence of peptidomimetic 15 is >2 µg/mL

MIC of antibiotic in presence of peptidomimetic 15 reported for this compound COCC1=C(C(=O)O)N2C(=O)[C@@H](NC(=O)/C(=N\OC)c3csc(N)n3)[C@H]2SC1 [Cefpodoxime] : >16 µg/mL

Form: compound = CC1(C)S[C@@H]2[C@H](NC(=O)[C@H](N)c3ccccc3)C(=O)N2[C@H]1C(=O)O [Ampicillin] ; MIC of antibiotic in presence of peptidomimetic 15 = >16 µg/mL

Lab book: MIC of antibiotic in presence of peptidomimetic 15 of CO/N=C(/C(=O)N[C@@H]1C(=O)N2C(C(=O)O)=C([C@@H]3CCCO3)CS[C@H]12)c1csc(N)n1 [Cefovecin] noted as >8 µg/mL

Recorded result, CNC(C)C1CCC(N)C(OC2C(N)CC(N)C(OC3OCC(C)(O)C(NC)C3O)C2O)O1 (centres unmarked) [Gentamicin] , MIC of antibiotic in presence of peptidomimetic 15: >8 µg/mL
